System: BT-549
testDetails: NCI-60 one-dose screen
Assay type: cell-based
particulars: Homo sapiens; BT-549, Breast Cancer panel; single dose 10^−5 M; read-out: Growth inhibition %
Listed below: inhibition at 10 µM values for each entry.
The response must be a number in % with no trailing unit.

Example cases with answers are listed next.
[
  {
    "compound": "COc1ccc(CNc2c3ccccc3nc3ccc(OC)cc23)cc1 [Compound 27]",
    "inhibition at 10 µM, %": 57
  },
  {
    "compound": "Fc1ccc(CNc2c3ccccc3nc3ccccc23)cc1F [Compound 22, Acridin-9-yl-(3,4-difluorobenzyl)-amine]",
    "inhibition at 10 µM, %": 31.8
  },
  {
    "compound": "Fc1ccc(CNc2c3ccccc3nc3ccccc23)cc1 [Compound 10, Acridin-9-yl-(4-fluorobenzyl)-amine]",
    "inhibition at 10 µM, %": 19.3
  }
]

Below: the item to evaluate.
Query block: # query: inhibition at 10 µM of entry COc1ccc2nc3ccccc3c(NCc3ccc(C)cc3)c2c1 [Compound 26]
Result block: 48.4
